# Target system: full-length human PRMT6 (Flag- and His-tagged) (Homo sapiens, UniProt Q96LA8)
# Sequence (Q96LA8 with tags, fused parts or gaps): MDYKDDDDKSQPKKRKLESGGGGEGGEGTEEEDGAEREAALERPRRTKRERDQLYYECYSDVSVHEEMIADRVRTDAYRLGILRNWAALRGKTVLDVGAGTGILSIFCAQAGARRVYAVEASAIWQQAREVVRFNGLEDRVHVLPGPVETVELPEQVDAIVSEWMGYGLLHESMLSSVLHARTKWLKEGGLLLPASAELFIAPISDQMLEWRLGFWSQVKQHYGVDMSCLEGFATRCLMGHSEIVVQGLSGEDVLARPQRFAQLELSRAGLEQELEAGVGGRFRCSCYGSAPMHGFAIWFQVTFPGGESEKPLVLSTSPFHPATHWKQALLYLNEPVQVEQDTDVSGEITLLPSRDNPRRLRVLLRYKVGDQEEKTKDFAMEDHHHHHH
# Procedure text: PRMT6 Biochemical Assay (3H-SAM Flashplate, peptide substrate)
# Settings: single experiment or average of multiple experiments; read-out: Biochemical IC50 PRMT6
pIC50: −log10 of the molar value.
Use Criterion met when the recorded pIC50 is no lower than 7; use Criterion not met when it is lower.

QUERY: Is pIC50 at least 7? Consider CNCCN(C)Cc1c[nH]nc1[C@H]1CC[C@]2(CCCO2)OC1 [Compound 198]
RESULT: Criterion not met

QUERY: pIC50 >= 7 for CNCCN(C)Cc1c[nH]nc1C1CCC2(CC1)C(=O)N(C)C(=O)N2C (stereo not shown) [Compound 171] ?
RESULT: Criterion met

QUERY: Could you please find out whether CNCCN(C)Cc1c[nH]nc1C1CCC(Oc2ccccc2)CC1 (stereo not shown) [Compound 67] has pIC50 that meets 7 or exceeds it?
RESULT: Criterion met

QUERY: Does pIC50 meet or surpass 7 for CN(CCN)Cc1c[nH]nc1/C=C/c1cc(C(F)(F)F)cc(C(F)(F)F)c1 [Compound 14] ?
RESULT: Criterion not met

QUERY: Check if pIC50 >= 7 (inclusive). Item: CNCCN(C)Cc1c[nH]nc1C1CC(COC)C(C)(C)C(COC)C1 (stereo not shown) [Compound 86]
RESULT: Criterion not met

QUERY: Does CNCCN(C)Cc1c[nH]nc1C1CCC2(CC1)CNC(=O)C2 (stereo not shown) [Compound 147] have a reported pIC50 of at least 7?
RESULT: Criterion met

QUERY: For this compound, is measured pIC50 7 or higher? CNCCN(C)Cc1c[nH]nc1C1CCC(COC(C)C)(COC(C)C)CC1 [Compound 61]
RESULT: Criterion met

QUERY: Could you verify whether the entry CNCCN(C)Cc1c[nH]nc1[C@H]1CC[C@H](N(CCCOC)C(=O)CCC(C)C)CC1 [Compound 243] shows pIC50 of no less than 7?
RESULT: Criterion met

QUERY: Answer whether pIC50 of CNCCN(C)Cc1c[nH]nc1C#Cc1ccccc1 [Compound 3] is greater than or equal to 7.
RESULT: Criterion met

QUERY: Record CN(CCN)Cc1c[nH]nc1C1CC1 [Compound 12] ; criterion: pIC50 no lower than 7. Met?
RESULT: Criterion not met

QUERY: I'd appreciate it if you could say whether CCN(C(=O)CCC(C)C)[C@H]1CC[C@H](c2n[nH]cc2CN(C)CCNC)CC1 [Compound 250] has pIC50 at least equal to 7.
RESULT: Criterion met

QUERY: Check the entry CN(CCN)Cc1n[nH]cc1C1CCC(C)(C)CC1 [Compound 36] : does pIC50 equal or exceed 7?
RESULT: Criterion met

QUERY: Identify whether the reported pIC50 of the following compound is 7 or greater: CNCCN(C)Cc1c[nH]nc1[C@H]1CC[C@]2(CC1)CC(=O)N(CC(C)C)C2 [Compound 155]
RESULT: Criterion met

QUERY: Please tell me: is the compound CCOC[C@@H]1C[C@H](COCC)C[C@H](c2n[nH]cc2CN(C)CCNC)C1 [Compound 189] at or over 7 in terms of pIC50?
RESULT: Criterion not met

QUERY: Item CN(CCN)Cc1c[nH]nc1C(C)(C)C [Compound 27] with pIC50 of 7 or above?
RESULT: Criterion not met

QUERY: Reported pIC50 reaches at least 7 for CNCCN(C)Cc1c[nH]nc1[C@H]1CC[C@@H](C(=O)N(C)CCC(C)C)CC1 [Compound 210] ?
RESULT: Criterion met

QUERY: Quick check, pIC50 >= 7? CN(CCN)Cc1c[nH]nc1[C@H]1CC[C@]2(CC1)CC(C)(C)CO2 [Compound 208]
RESULT: Criterion met

Where do these numbers come from? They come from patent US11512053B2.
